# target: monoacylglycerol lipase (MAGL) (Homo sapiens, UniProt Q99685)
# Sequence (Q99685 whole entry): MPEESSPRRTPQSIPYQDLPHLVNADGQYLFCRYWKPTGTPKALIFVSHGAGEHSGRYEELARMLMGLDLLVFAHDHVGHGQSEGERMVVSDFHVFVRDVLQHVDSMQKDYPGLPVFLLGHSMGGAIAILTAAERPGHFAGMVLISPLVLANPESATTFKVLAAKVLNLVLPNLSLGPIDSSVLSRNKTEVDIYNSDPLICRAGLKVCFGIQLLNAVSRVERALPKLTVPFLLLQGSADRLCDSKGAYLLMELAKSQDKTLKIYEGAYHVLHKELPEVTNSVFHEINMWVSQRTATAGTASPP
measured.quantity: pIC50
Scale note: pIC50 = -log10(concentration in M).

Q. Consider the molecule shown here: CN1c2ccccc2CC1C(=O)N1CCC(C(=O)Nc2cccc(Cl)c2)CC1 (stereo not shown) [M-18C, MAGLZ-18(c)] What is its recorded pIC50?
A. 6.18
